Biological target: recombinant human fibroblast activation protein (FAP) (Homo sapiens (Human), UniProt Q12884)
Sequence (Q12884 whole entry): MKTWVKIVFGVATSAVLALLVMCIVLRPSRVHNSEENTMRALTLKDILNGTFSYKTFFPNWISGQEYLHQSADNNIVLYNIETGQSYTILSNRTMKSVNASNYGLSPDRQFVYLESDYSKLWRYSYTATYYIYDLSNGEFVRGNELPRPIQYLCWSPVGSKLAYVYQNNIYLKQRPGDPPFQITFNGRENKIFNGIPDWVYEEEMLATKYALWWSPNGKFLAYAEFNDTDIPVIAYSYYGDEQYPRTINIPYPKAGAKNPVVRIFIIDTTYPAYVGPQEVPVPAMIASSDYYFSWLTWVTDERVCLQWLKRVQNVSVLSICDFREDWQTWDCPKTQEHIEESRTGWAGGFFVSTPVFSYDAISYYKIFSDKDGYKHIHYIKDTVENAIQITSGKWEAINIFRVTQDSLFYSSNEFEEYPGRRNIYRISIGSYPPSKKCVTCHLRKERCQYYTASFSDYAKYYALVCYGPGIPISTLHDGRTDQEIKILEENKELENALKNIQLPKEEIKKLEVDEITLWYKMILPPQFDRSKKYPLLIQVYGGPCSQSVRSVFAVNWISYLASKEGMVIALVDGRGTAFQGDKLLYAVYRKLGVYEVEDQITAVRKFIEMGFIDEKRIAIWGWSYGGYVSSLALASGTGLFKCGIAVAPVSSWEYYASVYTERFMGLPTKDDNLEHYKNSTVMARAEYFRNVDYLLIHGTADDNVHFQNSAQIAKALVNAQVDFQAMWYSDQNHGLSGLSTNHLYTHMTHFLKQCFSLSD
Test: In vitro assay fibroblast activation protein IC50 (Example 21)
Assay type: biochemical
Description: The purpose of this assay is to determine the IC50 of various inhibitors against recombinant human dipeptidyl peptidase IV (DPPIV), fibroblast activation protein (FAP) or prolyl oligopeptidase (PREP). The assays are conducted in the following steps: • 1 Dissolve the compound in DMSO to a final concentration of 100 mM. […] Read the fluorescence at λex: 380, λem: 460. […]
READOUT LABEL: pIC50
Answers are plain numbers, as −log10 of the molar value.

Here's what some known entries look like.
Recorded pIC50 for C[C@@H](NC(=O)c1ccc(NNC(=O)CCCCCNC(=O)CN2CCN3CCN4CCN(CC2)CC(=O)[O][Lu]([CH2]C(=O)C3)[O]C(=O)C4)nc1)C(=O)N1CCC[C@H]1B(O)O [6958LU] , please?
8.96

Would you kindly repeat that for C[C@@H](NC(=O)c1ccc(NNC(=O)CNC(=O)CN2CCN3CCN4CCN(CC2)CC(=O)[O][Ga]([O]C(=O)C3)[O]C(=O)C4)cc1)C(=O)N1CCC[C@H]1B(O)O [6487GA] ?
7.68

Would you kindly repeat that for C[C@@H](NC(=O)c1ccc(NNC(=O)CNC(=O)CN2CCN3CCN4CCN(CC2)CC(=O)[O][Lu]([O]C(=O)C3)[O]C(=O)C4)cc1)C(=O)N1CCC[C@H]1B(O)O [6487LU] ?
8.06

Items follow; give pIC50 for each.
1. C[C@@H](NC(=O)c1ccc(CNC(=O)CCCNC(=O)CN2CCN(CC(=O)O)CCN(CC(=O)O)CCN(CC(=O)O)CC2)cc1)C(=O)N1CCC[C@H]1B(O)O
2. C[C@@H](NC(=O)c1ccc(NNC(=O)CCCCC[N+]2=C(/C=C/C3=C(Oc4ccc(S(=O)(=O)O)cc4)C(=C/C=C4/N(CCCCS(=O)(=O)O)c5ccc(S(=O)(=O)O)cc5C4(C)C)/CCC3)C(C)(C)c3cc(S(=O)(=O)O)ccc32)cc1)C(=O)N1CCC[C@H]1B(O)O

[9.44, 8.77]
